This listing pairs compounds with measured IC50.
# test target: Tyk2 (Homo sapiens)
# protocol details: JAK kinase inhibition assay (EZ Reader, peptide substrate phosphorylation) - Tyk2
# Assay type: biochemical
# condition summary: Tyk2 kinase 1 nM; 8 concentration points, max 10 μM

These solved cases illustrate the format of a correct answer.
# test smiles, IC50
rows = [
    ("Cn1cc(Nc2nccc(-c3ccc(NC(=O)CC(F)(F)F)c4[nH]ccc34)n2)cn1", "0.1 to 1 µM"),
    ("Cn1cc(Nc2nccc(-c3ccc(NC(=O)CC#N)c4[nH]ncc34)n2)cn1", "0.1 to 1 µM"),
]

Q: Recorded IC50 for "CN1CCN(Cc2ccc(-c3ccnc(Nc4cnn(C)c4)n3)cc2)CC1" , please?
A: 1 to 10 µM

* * *

This listing pairs compounds with measured IC50.
# test target: JAK2 (Homo sapiens)
# Sequence (O60674 whole entry): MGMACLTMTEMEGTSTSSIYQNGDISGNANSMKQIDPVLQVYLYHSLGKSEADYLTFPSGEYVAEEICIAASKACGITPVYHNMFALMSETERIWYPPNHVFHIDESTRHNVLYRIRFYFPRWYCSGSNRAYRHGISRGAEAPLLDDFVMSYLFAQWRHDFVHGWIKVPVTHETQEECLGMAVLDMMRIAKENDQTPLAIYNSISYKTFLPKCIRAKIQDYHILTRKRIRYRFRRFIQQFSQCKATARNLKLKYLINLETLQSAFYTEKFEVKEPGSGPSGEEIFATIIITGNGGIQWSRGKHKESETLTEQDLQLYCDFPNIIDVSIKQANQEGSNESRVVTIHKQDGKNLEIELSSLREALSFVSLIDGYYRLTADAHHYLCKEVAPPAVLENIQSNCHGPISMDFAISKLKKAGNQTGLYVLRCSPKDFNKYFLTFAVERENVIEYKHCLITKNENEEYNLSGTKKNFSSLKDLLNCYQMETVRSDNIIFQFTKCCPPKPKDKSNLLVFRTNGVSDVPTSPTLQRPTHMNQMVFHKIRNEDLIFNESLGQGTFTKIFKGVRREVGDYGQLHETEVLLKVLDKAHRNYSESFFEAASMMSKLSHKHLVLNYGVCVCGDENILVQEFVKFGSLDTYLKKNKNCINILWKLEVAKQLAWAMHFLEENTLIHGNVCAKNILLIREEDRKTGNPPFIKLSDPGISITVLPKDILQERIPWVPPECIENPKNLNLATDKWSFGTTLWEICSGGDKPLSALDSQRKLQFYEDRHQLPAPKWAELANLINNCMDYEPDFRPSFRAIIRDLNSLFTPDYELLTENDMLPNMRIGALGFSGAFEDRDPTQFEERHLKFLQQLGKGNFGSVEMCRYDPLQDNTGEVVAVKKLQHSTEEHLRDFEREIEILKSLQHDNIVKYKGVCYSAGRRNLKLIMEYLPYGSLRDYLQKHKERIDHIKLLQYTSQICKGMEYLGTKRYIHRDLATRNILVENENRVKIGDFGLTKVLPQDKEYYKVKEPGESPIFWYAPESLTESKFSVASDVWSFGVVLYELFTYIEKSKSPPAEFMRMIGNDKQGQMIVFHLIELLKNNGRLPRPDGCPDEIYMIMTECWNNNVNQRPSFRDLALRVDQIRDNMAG
# protocol details: JAK kinase inhibition assay (EZ Reader, peptide substrate phosphorylation) - JAK2
# Type: biochemical
# condition summary: JAK2 kinase 1 nM; 8 concentration points, max 10 μM

These solved cases illustrate the format of a correct answer.
# compound, test target, IC50
records = [
    ("CCCCS(=O)(=O)Nc1ccc(-c2ccnc(Nc3cnn(C)c3)n2)cc1", "JAK2 (Homo sapiens)", "0.1 to 1 µM"),
    ("Cn1cc(Nc2nccc(-c3ccc(NS(=O)(=O)C4CC4)cc3)n2)cn1", "JAK2 (Homo sapiens)", "0.1 to 1 µM"),
    ("Cn1cc(Nc2nccc(-c3ccc(NC(=O)CC4CC4)nc3)n2)cn1", "JAK2 (Homo sapiens)", "0.1 to 1 µM"),
    ("COCCC(=O)Nc1ccc(-c2ccnc(Nc3cnn(C)c3)n2)cn1", "JAK2 (Homo sapiens)", "0.1 to 1 µM"),
    ("Cn1cc(Nc2nccc(-c3ccc(NC(=O)C4CC4)nc3)n2)cn1", "JAK2 (Homo sapiens)", "0.1 to 1 µM"),
]

Q: Recorded IC50 for "COCC(=O)Nc1ccc(-c2ccnc(Nc3cnn(C)c3)n2)cc1" , please?
A: 1 to 10 µM

Q: Recorded IC50 for Cn1cc(Nc2nccc(-c3ccc(NC(=O)C4CC4(F)F)cc3)n2)cn1 (stereo not drawn) , please?
A: < 0.1 µM

Q: Recorded IC50 for "Cn1cc(Nc2nccc(-c3ccc(NS(=O)(=O)CCC(F)(F)F)cc3)n2)cn1" , please?
A: 0.1 to 1 µM

Q: Recorded IC50 for "Cn1cc(Nc2nccc(-c3ccc(NC(=O)C4(F)CC4)nc3)n2)cn1" , please?
A: 0.1 to 1 µM

* * *

# test target: Tyk2 (Homo sapiens, UniProt P29597)
# Sequence (P29597 whole entry): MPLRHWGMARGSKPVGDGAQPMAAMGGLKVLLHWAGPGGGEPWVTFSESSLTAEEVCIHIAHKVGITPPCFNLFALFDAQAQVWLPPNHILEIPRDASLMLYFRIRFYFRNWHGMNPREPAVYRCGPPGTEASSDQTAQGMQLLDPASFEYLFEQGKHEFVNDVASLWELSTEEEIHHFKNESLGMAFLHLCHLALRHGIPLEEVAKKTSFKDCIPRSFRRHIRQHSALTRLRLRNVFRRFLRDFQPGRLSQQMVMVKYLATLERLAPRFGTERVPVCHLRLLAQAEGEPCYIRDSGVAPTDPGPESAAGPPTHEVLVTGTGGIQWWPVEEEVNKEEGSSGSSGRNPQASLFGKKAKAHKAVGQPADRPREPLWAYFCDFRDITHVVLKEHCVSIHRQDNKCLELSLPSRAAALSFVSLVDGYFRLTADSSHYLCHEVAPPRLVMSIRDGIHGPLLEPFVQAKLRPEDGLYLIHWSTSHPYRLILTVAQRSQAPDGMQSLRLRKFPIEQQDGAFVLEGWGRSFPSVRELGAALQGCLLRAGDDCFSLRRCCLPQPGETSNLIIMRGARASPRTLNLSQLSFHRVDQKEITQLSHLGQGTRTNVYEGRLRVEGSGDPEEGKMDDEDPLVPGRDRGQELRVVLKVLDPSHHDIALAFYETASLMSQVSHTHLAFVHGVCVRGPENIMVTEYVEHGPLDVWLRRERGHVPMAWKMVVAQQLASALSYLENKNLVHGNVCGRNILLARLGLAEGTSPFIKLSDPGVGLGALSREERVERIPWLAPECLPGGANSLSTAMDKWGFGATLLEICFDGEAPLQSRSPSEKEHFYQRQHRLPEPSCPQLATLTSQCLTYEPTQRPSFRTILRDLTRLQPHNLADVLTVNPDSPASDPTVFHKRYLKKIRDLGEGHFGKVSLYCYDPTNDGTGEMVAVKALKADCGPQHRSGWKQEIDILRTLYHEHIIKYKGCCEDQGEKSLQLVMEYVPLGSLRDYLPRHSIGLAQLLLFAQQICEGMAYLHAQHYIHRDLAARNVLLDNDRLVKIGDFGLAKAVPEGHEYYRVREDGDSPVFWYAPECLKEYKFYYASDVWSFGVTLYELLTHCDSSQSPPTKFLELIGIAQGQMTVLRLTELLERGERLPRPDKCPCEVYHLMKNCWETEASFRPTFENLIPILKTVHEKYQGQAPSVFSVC
# protocol details: JAK kinase inhibition assay (EZ Reader, peptide substrate phosphorylation) - Tyk2
# Format: biochemical
# condition summary: Tyk2 kinase 1 nM; 8 concentration points, max 10 μM
readout label: IC50

Q: Recorded IC50 for "Cn1cc(Nc2nccc(-c3ccc(C(=O)N4CCS(=O)(=O)CC4)nc3)n2)cn1" , please?
A: 1 to 10 µM

Q: Recorded IC50 for "Cn1cc(Nc2nccc(-c3ccc(C(=O)NCC#N)nc3)n2)cn1" , please?
A: 0.1 to 1 µM

Q: Recorded IC50 for "Cn1cc(Nc2nccc(-c3ccc(NS(=O)(=O)CCc4ccccc4)cc3)n2)cn1" , please?
A: 0.1 to 1 µM

* * *

# test target: Tyk2 (Homo sapiens, UniProt P29597)
# protocol details: JAK kinase inhibition assay (EZ Reader, peptide substrate phosphorylation) - Tyk2
# Assay type: biochemical
# condition summary: Tyk2 kinase 1 nM; 8 concentration points, max 10 μM
readout label: IC50

# test smiles, readout label, experimental value
rows = [
    ("CCS(=O)(=O)Nc1ccc(-c2ccnc(Nc3cnn(C)c3)n2)cc1", "IC50", "0.1 to 1 µM"),
    ("Cc1cc(-c2ccnc(Nc3cnn(C)c3)n2)ccc1C(=O)NCC(F)(F)F", "IC50", "0.1 to 1 µM"),
    ("Cn1cc(Nc2nccc(-c3ccc(CNCC#N)cc3)n2)cn1", "IC50", "0.1 to 1 µM"),
    ("CCCS(=O)(=O)Nc1ccc(-c2ccnc(Nc3cnn(C)c3)n2)cc1", "IC50", "0.1 to 1 µM"),
]

Q: Recorded IC50 for "Cn1cc(Nc2nccc(-c3ccc(NC(=O)[C@@H]4CC4(F)F)nc3)n2)cn1" , please?
A: < 0.1 µM
